These measurements were taken from patent US11591404B2.

assay_notes: PK analysis of RAD001 in tumor bearing mice
Assay type: in vivo, NSG mice
measurement_context: NSG, mouse, blood, oral; 24 hours after dosing, 0.3 mg/kg, day 0 and day 14; read-out: RAD001 concentrations in the blood
observable: concentration at 24 h

Endpoint output: concentration at 24 h of `CO[C@H]1C[C@@H]2CC[C@@H](C)[C@@](O)(O2)C(=O)C(=O)N2CCCC[C@H]2C(=O)O[C@H]([C@H](C)C[C@@H]2CC[C@@H](OCCO)[C@H](OC)C2)CC(=O)[C@H](C)/C=C(\C)[C@@H](O)[C@@H](OC)C(=O)[C@H](C)C[C@H](C)/C=C/C=C/C=C/1C` . Value?
> 10 nM
